# credit: patent EP0097439A2

assayProcedure: Plasma levels of 9-deoxo-16,16-dimethyl-9-methylene-PGE2 by radioimmunoassay after insertion of a suppository
Type: in vivo, Rhesus monkeys (Macaca mulatta)
experimentalConditions: rhesus monkey, plasma, 30 mg, plasma; Monkey #18; 6 Hours; 30 mg Potassium Salt in H15 Plus 2% CSD + 10% Triacetin Suppositories; read-out: Drug Levels
Where a name gives a salt, the structure may show the parent alone.
property: concentration at 6 h (ng/mL)
Field format: number, assumed ng/mL, no unit text.

Input: I would be grateful if you could share the reported concentration at 6 h for C=C1C[C@@H](O)[C@H](/C=C/[C@@H](O)C(C)(C)CCCC)[C@H]1C/C=C\CCCC(=O)O [Potassium Salt] .
Output: 33.9
